Below is a list of entries, each paired with its recorded pKd value.
- tgt: T1, soluble extracellular domain of human IL-5 receptor alpha subunit (sIL-5Rα) (human, UniProt Q01344)
- T1 construct: human IL-5 receptor alpha subunit (IL-5Rα, CD125), extracellular domain, residues 21–333; subcloned from a cDNA of residues 1–420; Expressed from the pSecTag2A vector; migrates at ~50 kDa (glycosylated); A biotinylated form (BirA) was used only for library screening; also called sIL-5α; CD125; source: HEK293F, transiently transfected, purified (Ni-NTA); not shown: Avi, C-terminal, kept; His6, …
- protocol.description: BLI; Octet QKe, 30°C, 1× kinetics buffer in PBS pH 7.4; Ab immobilised on anti-human IgG Fc capture (AHC) biosensors, sIL-5Rα as analyte; association 300 s, dissociation 600 s; 1:1 binding model
- settings: both partners purified
pKd: −log10 of the molar value.
observed.property: pKd

[
  {
    "binder": "5R86 (antibody, V domains shown, Human IgG1, kappa; selected as scFab by yeast display from the hu2B7 VH-CDR2 library; source: HEK293F, purified (Protein A)) VH: QVQLVQSGAEVKKPGSSVKVSCKASGYTFTSYWINWVRQAPGQGLEWIGHIYPTSSVKFYNNKFKDKATLTVDKSTNTAYMELSSLRSEDTAVYYCTRDYYGRSYYYAMDYWGQGTTLTVSS VL: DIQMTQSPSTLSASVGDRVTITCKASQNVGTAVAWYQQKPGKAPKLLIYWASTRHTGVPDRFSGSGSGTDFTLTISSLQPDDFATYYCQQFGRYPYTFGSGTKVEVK",
    "quantitative.readout": 7.93
  },
  {
    "binder": "5R65.39 (antibody, V domains shown, as the VH of m6 (5R65) with mutations in VH-CDR3 (Kabat residues 95–100d were randomised); no mutations in VL-CDR3; Human IgG1, kappa; selected as scFab by yeast display from the 5R65 CDR3 library under kinetic screening; source: HEK293F, purified (Protein A)) VH: QVQLVQSGAEVKKPGSSVKVSCKASGYTFTSYWINWVRQAPGQGLEWIGHIYPNKNENYYNHKFKDKATLTVDKSTNTAYMELSSLRSEDTAVYYCTREFYGRSRYSAMDYWGQGTTLTVSS VL: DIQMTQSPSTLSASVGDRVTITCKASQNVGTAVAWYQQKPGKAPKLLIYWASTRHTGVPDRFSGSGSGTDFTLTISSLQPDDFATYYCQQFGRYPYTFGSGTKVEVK",
    "quantitative.readout": 8.21
  },
  {
    "binder": "5R65.14 (antibody, V domains shown, as the VH of m6 (5R65) with mutations in VH-CDR3 (Kabat residues 95–100d were randomised); no mutations in VL-CDR3; Human IgG1, kappa; selected as scFab by yeast display from the 5R65 CDR3 library under kinetic screening; source: HEK293F, purified (Protein A)) VH: QVQLVQSGAEVKKPGSSVKVSCKASGYTFTSYWINWVRQAPGQGLEWIGHIYPNKNENYYNHKFKDKATLTVDKSTNTAYMELSSLRSEDTAVYYCTREHYGRPYYNAMDYWGQGTTLTVSS VL: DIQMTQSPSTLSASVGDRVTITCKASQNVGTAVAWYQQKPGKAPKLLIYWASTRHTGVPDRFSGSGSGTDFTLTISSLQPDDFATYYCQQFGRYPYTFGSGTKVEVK",
    "quantitative.readout": 8.06
  },
  {
    "binder": "5R80 (antibody, V domains shown, Human IgG1, kappa; selected as scFab by yeast display from the hu2B7 VH-CDR2 library; source: HEK293F, purified (Protein A)) VH: QVQLVQSGAEVKKPGSSVKVSCKASGYTFTSYWINWVRQAPGQGLEWIGHIYPQKTLTIYNHKFKDKATLTVDKSTNTAYMELSSLRSEDTAVYYCTRDYYGRSYYYAMDYWGQGTTLTVSS VL: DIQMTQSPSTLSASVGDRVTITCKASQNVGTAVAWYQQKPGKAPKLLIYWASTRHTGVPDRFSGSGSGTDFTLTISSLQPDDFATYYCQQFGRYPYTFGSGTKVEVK",
    "quantitative.readout": 7.79
  },
  {
    "binder": "5R65.18 (antibody, V domains shown, as the VH of m6 (5R65) with mutations in VH-CDR3 (Kabat residues 95–100d were randomised); no mutations in VL-CDR3; Human IgG1, kappa; selected as scFab by yeast display from the 5R65 CDR3 library under kinetic screening; source: HEK293F, purified (Protein A)) VH: QVQLVQSGAEVKKPGSSVKVSCKASGYTFTSYWINWVRQAPGQGLEWIGHIYPNKNENYYNHKFKDKATLTVDKSTNTAYMELSSLRSEDTAVYYCTREYYGRTYYSAMDYWGQGTTLTVSS VL: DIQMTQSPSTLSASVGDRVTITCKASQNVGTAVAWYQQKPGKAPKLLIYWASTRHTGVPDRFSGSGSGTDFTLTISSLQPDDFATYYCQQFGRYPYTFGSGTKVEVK",
    "quantitative.readout": 8.23
  }
]
